- TESTED_ON: T1, DR5 (TRAIL-R2) Fc, recombinant receptor from R&D Systems (UniProt O14763 54-182, limits assumed)
- T1 construct: also called soluble TRAIL-R2 Fc; immobilized TRAIL-R2 Fc; not shown: Fc part of the bought Fc fusion
- PROTOCOL_DESCRIPTION: SPR, Biacore 3000, 37 C, receptor Fc on CM5 chip, ligand 0.1-250 nM
MEASURED_METRIC: fold improvement in binding relative to wild-type TRAIL

// Input: TRAIL mutant D269HE195R (ligand) VRERGPQRVAAHITGTRGRSNTLSSPNSKNEKALGRKINSWESSRSGHSFLSNLHLRNGELVIHEKGFYYIYSQTYFRFQERIKENTKNDKQMVQYIYKYTSYPDPILLMKSARNSCWSKDAEYGLYSIYQGGIFELKENDRIFVSVTNEHLIDMHHEASFFGAFLVG . Output its fold improvement in binding relative to wild-type TRAIL only. > 10 fold
